Here, each record is paired with measured pKi data.
- System Tested: σ1-receptor (Cavia porcellus)
- Construct: the σ1-receptor preparation was prepared from guinea pig brain; from tissue; host or cells: guinea pig brain membrane homogenate
- Sequence (Q60492 whole entry): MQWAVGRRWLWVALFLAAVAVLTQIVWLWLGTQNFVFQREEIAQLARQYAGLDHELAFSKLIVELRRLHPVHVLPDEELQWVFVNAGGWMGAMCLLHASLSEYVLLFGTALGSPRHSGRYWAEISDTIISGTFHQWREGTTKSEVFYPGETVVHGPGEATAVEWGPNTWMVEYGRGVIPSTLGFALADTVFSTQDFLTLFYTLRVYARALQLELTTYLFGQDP
- Test Summary: Sigma 1 receptor binding (Version B), [3H]-(+)-Pentazocin displacement
- Parameters: species or system guinea pig
- Measurement Context: version B; guinea pig brain preparation; [3H]-(+)-Pentazocin 2 nM; read-out: Binding σ1 Ki
pKi field: float, defined as -log10 of concentration (mol/L).

Check out these entries, answers already filled in.
>>> df
                                   compound                  system_tested  result_number
0  COC1Cc2sccc2C2(CCN(Cc3ccccc3)CC2)O1 (stereo not shown)  σ1-receptor (Cavia porcellus)           9.49
1         c1cc2c(s1)CCOC21CCN(CC2CCCCC2)CC1  σ1-receptor (Cavia porcellus)           9.18
2  COC1Cc2sccc2C2(CCN(CC3CCCCC3)CC2)O1 (stereo not shown)  σ1-receptor (Cavia porcellus)           9.54
3  CCCCN1CCC2(CC1)OC(OC)Cc1sccc12 (stereo not shown)  σ1-receptor (Cavia porcellus)           8.37
4  COC1Cc2sccc2C2(CCN(Cc3cccs3)CC2)O1 (stereo not shown)  σ1-receptor (Cavia porcellus)           8.69

Query: For COC1Cc2sccc2C2(CCN(CCCCc3ccccc3)CC2)O1 (stereo not shown) , what is its reported pKi?
Reply: 8.12

Query: What value of measured pKi is listed for COC1Cc2sccc2C2(CCNCC2)O1 (stereo not shown) ?
Reply: 6.22

###

- System Tested: σ2-receptor (Rattus norvegicus)
- Construct: the σ2-Receptorpreparation was prepared from rat liver; from tissue; host or cells: rat liver membrane homogenate
- Test Summary: Sigma 2 receptor binding (Version B), [3H]-Ditolylguanidin displacement
- Measurement Context: Binding σ2 Ki [nM], version B; rat liver preparation; [3H]-Ditolylguanidin 3 nM; σ1 sites masked with (+)-Pentazocin 500 nM
- Experimental: In brief the σ2-Receptorpreparation was prepared from rat liver. The livers were homogenized in 5 to 6 times of volume sucrose solution (0.32M) and homogenized. The homogenate was centrifuged at 2900 rpm, 4° C., 10 min). the supernatant was centrifuged again (31000×g, 4° C., 20 min). […] Then the protein content was measured (approx. 2 mg/mL) and the homogenate frozen at −80° C. for later use. […]
Value Type: Ki (nM)
The response must be a number in nM with no trailing unit.

Examples from the recorded data:
In [3]: df
Out[3]:
                                   molecule  units  result_number
0         c1ccc(CN2CCC3(CC2)OCCc2sccc23)cc1     nM            9.6
1  COC1Cc2sccc2C2(CCN(CC=C(C)C)CC2)O1 (stereo not shown)     nM           78.1
2  COC1Cc2sccc2C2(CCN(CCCCc3ccccc3)CC2)O1 (stereo not shown)     nM           99.2

Now look at this entry.
Query: Need Ki of c1cc2c(s1)CCOC21CCN(CC2CCCCC2)CC1 , thanks.
Reply: 3.27

###

- System Tested: σ2-receptor (Rattus norvegicus)
- Construct: the σ2-Receptorpreparation was prepared from rat liver; from tissue; host or cells: rat liver membrane homogenate
- Sequence (Q5U3Y7 1-176): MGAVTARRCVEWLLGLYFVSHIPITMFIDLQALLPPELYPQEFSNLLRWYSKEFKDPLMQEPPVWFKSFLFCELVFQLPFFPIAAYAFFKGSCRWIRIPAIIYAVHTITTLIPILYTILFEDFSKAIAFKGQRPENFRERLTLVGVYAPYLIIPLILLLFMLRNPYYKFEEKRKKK
- Test Summary: Sigma 2 receptor binding (Version B), [3H]-Ditolylguanidin displacement
- Measurement Context: version B; rat liver preparation; [3H]-Ditolylguanidin 3 nM; σ1 sites masked with (+)-Pentazocin 500 nM; read-out: Binding σ2 Ki
Documented Ki across a set of compounds
Provide the reading as a plain figure in nM.

Consider the reported Ki for these compounds:
                                   compound  result_number
0  COC1Cc2sccc2C2(CCN(CCc3ccccc3)CC2)O1 (stereo not shown)            191
1  CCCCN1CCC2(CC1)OC(OC)Cc1sccc12 (stereo not shown)            497
2  COc1ccc(CN2CCC3(CC2)OC(OC)Cc2sccc23)cc1 (stereo not shown)           2970
3  COC1Cc2sc(C(=O)c3ccccc3)cc2C2(CCN(Cc3ccccc3)CC2)O1 (stereo not shown)            427
4  COC1Cc2sccc2C2(CCN(CCCc3ccccc3)CC2)O1 (stereo not shown)            203

Query: Sample COC1Cc2sccc2C2(CCN(CCC(C)C)CC2)O1 (stereo not shown) — what was its Ki?
Reply: 285

Query: Ki lookup needed for COC1Cc2sccc2C2(CCN(Cc3ccccc3)CC2)O1 (stereo not shown) , thanks.
Reply: 1260

Query: Recorded Ki of CCCCCN1CCC2(CC1)OC(OC)Cc1sccc12 (stereo not shown) , please.
Reply: 460

Query: Consider the compound shown here: COC1Cc2sc(CN(C)C)cc2C2(CCN(Cc3ccccc3)CC2)O1 (stereo not shown) What is its recorded Ki?
Reply: 898

Query: Request the reported Ki associated with CCCCCCCCN1CCC2(CC1)OC(OC)Cc1sccc12 (stereo not shown)
Reply: 1200
